Target: HiSiaP (P-domain) (Haemophilus influenzae, UniProt P44542, D81R)
Sequence (P44542 24-329 D81R): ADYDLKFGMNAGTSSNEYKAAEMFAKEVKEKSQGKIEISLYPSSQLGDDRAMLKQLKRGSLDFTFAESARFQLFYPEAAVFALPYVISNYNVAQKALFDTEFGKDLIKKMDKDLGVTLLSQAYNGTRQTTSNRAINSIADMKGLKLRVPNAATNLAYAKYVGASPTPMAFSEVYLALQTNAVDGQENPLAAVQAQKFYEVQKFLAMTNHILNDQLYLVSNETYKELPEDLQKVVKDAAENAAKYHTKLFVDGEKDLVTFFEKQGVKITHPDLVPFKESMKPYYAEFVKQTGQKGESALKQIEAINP
Settings: read-out: affinity; 50 mM Tris, 50 mM NaCl, pH 8; one approximate value printed for all three mutants
assay.metric: Kd

1. CC(=O)N[C@H]1[C@H]([C@H](O)[C@H](O)CO)OC(O)(C(=O)O)C[C@@H]1O (stereo partly shown) : ~50 nM

---

Biological target: HiSiaP (P-domain) (Haemophilus influenzae, UniProt P44542, E195R)
Details: read-out: affinity; 50 mM Tris, 50 mM NaCl, pH 8; one approximate value printed for all three mutants
assay.metric: Kd

1) CC(=O)N[C@H]1[C@H]([C@H](O)[C@H](O)CO)OC(O)(C(=O)O)C[C@@H]1O (stereo partly shown) [sialic acid] : ~50 nM

Origin of measurements: paper PMC9352664
